# Test system: NIH3T3
# experimental details: Cytotoxic Profiling of Annotated Libraries Using Quantitative High-Throughput Screening (AID 1296008); note: % is set by controls: 0 for no effect and ±100 for the full control effect; nearly all actives have a fitted effect of over 60% in size
# assay context: Five cell lines viability, CellTiter-Glo ATP luminescence, 48-72 h; active compounds read low
# Description: Cell-based phenotypic screening is a commonly used approach to discover biological pathways, novel drug targets, chemical probes and high-quality hit-to-lead molecules. […] A pintool (Kalypsys) was used to transfer 23 nL of compound solution to the 1536-well assay plates. […] Plates were left at room temperature for 10 min before imaging the ATP-coupled luminescence using a ViewLux microplate imager (PerkinElmer, Waltham, MA).
Inconclusive results are not listed. Active and inactive are the calls of the source. Calls come from the whole dose curve; as a rule, active = well fitted inhibition curve with a large enough effect; inconclusive = small, poorly fitted or top-dose-only effect; inactive = flat fitted curve, though single readings scatter.
For each entry below, report its max response value.

Record request: max response value, item Nc1ncnc2c1ncn2[C@@H]1O[C@H](CO)[C@@H](O)[C@@H]1O
3.26% (inactive)

Record request: max response value, item O=C1C(CCC(O)c2ccc(F)cc2)C(c2ccc(O)cc2)N1c1ccc(F)cc1 (centres undefined)
1.16% (inactive)

Record request: max response value, item Cc1ccc(NC(=O)c2cccc(N(C)C)c2)cc1NC(=O)c1ccc(O)cc1
3.99% (inactive)

Record request: max response value, item Cc1cccc2c1CC[C@H](CN1CCC(c3c(Cl)cccc3Cl)CC1)C[C@@H]2O
-20.2% (inactive)

Record request: max response value, item FC(F)(F)c1ccc(C=Cc2nc(COc3ccc(CCCCn4ccnn4)cc3)co2)cc1
-14.8% (inactive)

Record request: max response value, item CC(C)CN(C[C@H](O)[C@H](Cc1ccccc1)NC(=O)O[C@H]1CCOC1)S(=O)(=O)c1ccc(N)cc1
1.75% (inactive)

Record request: max response value, item CCOc1ccccc1N=Nc1c(C)[nH]n(-c2nc(-c3ccccc3)cs2)c1=O
-3.32% (inactive)

Record request: max response value, item CCOC(=O)c1c(CSc2ccccc2)n(C)c2cc(Br)c(O)c(CN(C)C)c12
-4.48% (inactive)

Record request: max response value, item C=C[C@@H]1CN2CCC1C[C@@H]2C(O)c1ccnc2ccc(OC)cc12 (some centres undefined)
0.497% (inactive)

Record request: max response value, item COC1CCC(C(=O)c2ccc3nc4c(cc3c2)CCCO4)CC1 (centres undefined)
-7.67% (inactive)

Record request: max response value, item CNC(=O)c1cc(COc2nnc(Nc3ccc(Cl)cc3)c3ccoc23)ccn1
-16.8% (inactive)

Record request: max response value, item Cc1ccccc1C(=O)c1ccc(Nc2ccc(Br)cc2N)cc1Cl
-21.7% (inactive)

Record request: max response value, item NC[C@H]1O[C@H](O[C@@H]2[C@@H](O)[C@@H](O[C@H]3O[C@H](CO)[C@@H](O)[C@H](N)[C@@H]3O)[C@H](N)C[C@@H]2N)[C@H](O)[C@@H](O)[C@H]1O
-1.04% (inactive)

Record request: max response value, item CNC(=O)c1c(-c2ccc(F)cc2)oc2cc(N(CCO)S(C)(=O)=O)c(C3CC3)cc12
-17.1% (inactive)

Record request: max response value, item O=C(C=Cc1ccc(O)cc1)c1ccc(O)cc1O
-8.95% (inactive)

Record request: max response value, item CCOC(=O)[C@@H](N)CCC(=O)N[C@@H](CSCc1ccccc1)C(=O)N[C@@H](C(=O)OCC)c1ccccc1
1.31% (inactive)

Record request: max response value, item NCC1CCC(C(=O)O)CC1 (centres undefined)
-3.72% (inactive)

Record request: max response value, item CC(C)(C)c1[nH]cnc1C=c1[nH]c(=O)c(=Cc2ccccc2)[nH]c1=O
-78.6% (inactive)

Record request: max response value, item Cc1ccc(S(=O)(=O)OCC(=O)Nc2ccc(C(=O)O)c(O)c2)cc1
-0.735% (inactive)
